MEASUREMENT_PROTOCOL: Half life in nonobese adult human at 4 mg/kg, iv administered as single dose 30 mins infusion
Assay type: ADME, organism-based
Design: dose 4 mg/kg, route intravenous
MEASUREMENT_CONTEXT: in vivo
READOUT: half-life (h)
State the answer as a number, implicitly in h.

Q: Name the reported half-life value associated with the molecule CCCCCCCCCC(=O)N[C@@H](Cc1c[nH]c2ccccc12)C(=O)N[C@H](CC(N)=O)C(=O)N[C@@H](CC(=O)O)C(=O)N[C@@H]1C(=O)NCC(=O)N[C@@H](CCCN)C(=O)N[C@@H](CC(=O)O)C(=O)N[C@H](C)C(=O)N[C@@H](CC(=O)O)C(=O)NCC(=O)N[C@H](CO)C(=O)N[C@@H]([C@H](C)CC(=O)O)C(=O)N[C@@H](CC(=O)c2ccccc2N)C(=O)O[C@@H]1C
Result: 6.83

Ref: ChEMBL document CHEMBL1649119
